All values here come from ChEMBL document CHEMBL4184090.

Recorded log10 IC50, one value per entry.
- System: MCF7
- method description: Antiproliferative activity against human MCF7 cells after 72 hrs by MTT assay
- Type: functional, cell-based
- setup conditions: MCF7, 72 h
readout label: log10 IC50 (log10 of the value in µM)

entry_smiles=CCCCCCCCCCCCNC[C@@H]1OC[C@H](N)[C@H]1O endpoint_value=1.10
entry_smiles=CCCCCCCCCCCCCCNC[C@@H]1OC[C@H](N)[C@@H]1O endpoint_value=-0.14
entry_smiles=CCCCCCCCCCNC[C@@H]1OC[C@H](N)[C@@H]1O endpoint_value=1.53
entry_smiles=CCCCCCCCCCCCCC[C@@H]1OC[C@H](N)[C@@H]1O endpoint_value=0.37
entry_smiles=CCCCCCCCCNC[C@@H]1OC[C@H](N)[C@@H]1O endpoint_value=1.10
entry_smiles=CCCCCCCCCCCNC[C@@H]1OC[C@H](N)[C@@H]1O endpoint_value=0.83
entry_smiles=CCCCCCCCCCNC[C@@H]1OC[C@H](N)[C@H]1O endpoint_value=1.63
entry_smiles=O=c1[nH]cc(F)c(=O)[nH]1 endpoint_value=0.79
entry_smiles=CCCCCCCCCCCNC[C@@H]1OC[C@H](N)[C@H]1O endpoint_value=1.12

* * *

Recorded IC50, one value per entry.
- Tested on: MCF7
- method description: Antiproliferative activity against human MCF7 cells after 72 hrs by MTT assay
- Type: functional, cell-based
- setup conditions: MCF7, 72 h
readout label: IC50

entry_smiles=CCCCCCCCNC[C@@H]1OC[C@H](N)[C@H]1O endpoint_value="> 128 µM"
entry_smiles=CCCCCCCNC[C@@H]1OC[C@H](N)[C@@H]1O endpoint_value="> 128 µM"
entry_smiles=CCCCCCCNC[C@@H]1OC[C@H](N)[C@H]1O endpoint_value="> 128 µM"
